molecular target: 5-hydroxytryptamine receptor 1B (Homo sapiens, UniProt P28222); assay: Effective concentration determined by measuring inhibition of forskolin-stimulated c-AMP formation at 5-hydroxytryptamine 1B receptor stably transfected in CHO cell lines
Sequence (P28222 whole entry): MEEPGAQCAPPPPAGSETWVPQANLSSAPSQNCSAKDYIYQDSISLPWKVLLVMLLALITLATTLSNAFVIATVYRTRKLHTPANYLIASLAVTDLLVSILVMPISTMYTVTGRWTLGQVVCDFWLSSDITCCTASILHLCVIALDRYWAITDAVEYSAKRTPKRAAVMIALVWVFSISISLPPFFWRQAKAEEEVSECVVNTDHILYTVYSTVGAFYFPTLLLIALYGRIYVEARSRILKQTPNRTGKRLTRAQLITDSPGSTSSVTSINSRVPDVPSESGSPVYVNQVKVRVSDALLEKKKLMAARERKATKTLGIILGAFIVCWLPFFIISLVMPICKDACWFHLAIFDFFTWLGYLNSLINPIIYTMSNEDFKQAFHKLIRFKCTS
Here the recorded pEC50 is given for each entry.
Reminder that pEC50 is minus the log10 of a molar concentration.

Prompt line: Quote pEC50 reported for CN(C)CCc1c[nH]c2ccc(C[C@H]3COC(=O)N3)cc12 please.
Response line: 7.80

Prompt line: Quote pEC50 reported for CN(C)CCc1c[nH]c2ccc(CS(=O)(=O)N(C)Cc3ccc(CN(C)S(=O)(=O)Cc4ccc5[nH]cc(CCN(C)C)c5c4)cc3)cc12 please.
Response line: 9.24
